tested on: NCI/ADR-RES ovarian; assay: NCI tumour cell line growth inhibition, 48 h
QUANTITY_MEASURED: TGI (µM)
Note: unit µM is implicit; provide only the numeric part.

Data request: // lookup TGI | system=NCI/ADR-RES ovarian | key= COC1=CC(=O)c2c(cc(COP(N)(=O)N(CCBr)CCBr)n2C)C1=O (centres undefined)
Data returned: 7.86

Data request: // lookup TGI | system=NCI/ADR-RES ovarian | key= `CN(CCCNC(=O)c1nn(-c2ccccc2)c2c1ccc1ccccc12)CCCNC(=O)c1nn(-c2ccccc2)c2c1ccc1ccccc12`
Data returned: 3.53

Data request: // lookup TGI | system=NCI/ADR-RES ovarian | key= C=CCCCCNC(=O)C[C@@H]1C2=C(CC[C@H]1O[Si](C)(C)C(C)(C)C)N1C(=O)CCC/C=C\C1C2 (some centres undefined)
Data returned: 24.7

---

test system: TK-10 renal; assay: NCI tumour cell line growth inhibition, 48 h
QUANTITY_MEASURED: TGI (µM)
Note: unit µM is implicit; provide only the numeric part.

Data request: # query: TGI of entry `COc1ccc(C(=O)/C=C/c2ccc(Oc3cc(C(=O)/C=C/c4ccc(O)cc4)c(O)cc3OC)cc2)c(O)c1`
Data returned: 58

Data request: # query: TGI of entry `CN(CCCNC(=O)c1nn(-c2ccccc2)c2c1ccc1ccccc12)CCCNC(=O)c1nn(-c2ccccc2)c2c1ccc1ccccc12`
Data returned: 3.58

---

system: HCT-15 colon; assay: NCI tumour cell line growth inhibition, 48 h
QUANTITY_MEASURED: TGI

Data request: // lookup TGI | system=HCT-15 colon | key= Nc1ncnc2c1ncn2C1CC(O)C(CO)O1 (stereo not drawn)
Data returned: > 100 µM

Data request: // lookup TGI | system=HCT-15 colon | key= `CC(=O)Oc1cc(C(C)C)c(OCCN(C)C)cc1C`
Data returned: > 100 µM

Data request: // lookup TGI | system=HCT-15 colon | key= `CCCCCCCCCCCCCC(=O)NCO`
Data returned: > 100 µM

Data request: // lookup TGI | system=HCT-15 colon | key= `CCOC(=O)[C@@H]1[C@@H]2NC(=O)N[C@@]1(C)Oc1ccccc12`
Data returned: > 100 µM

Data request: // lookup TGI | system=HCT-15 colon | key= COc1ccc(/C=C2\CCC(CN3CCOCC3)C2=O)cc1 (stereo not drawn)
Data returned: 6.2 µM

Data request: // lookup TGI | system=HCT-15 colon | key= `Cn1c(-c2ccncc2)c(-c2ccc(F)cc2)c2ncccc21`
Data returned: > 25 µM

Data request: // lookup TGI | system=HCT-15 colon | key= CC(=O)OCC(OC(C)=O)C(OC(C)=O)C(OC(C)=O)C(=O)CNn1c(-c2ccc(C)cc2)nc2ccccc2c1=O (stereo not drawn)
Data returned: > 100 µM

Data request: // lookup TGI | system=HCT-15 colon | key= `Cc1ccccc1NC(=O)C(=O)c1c(O)c2ccc(O)cc2oc1=O`
Data returned: > 100 µM

Data request: // lookup TGI | system=HCT-15 colon | key= `O=C(NC(=S)Nc1ccc2c(c1)Sc1ccccc1O2)c1ccccc1`
Data returned: > 100 µM

Data request: // lookup TGI | system=HCT-15 colon | key= CC1CC2(OC2C)C(=O)OC2CCN(C)C/C=C(/COC(=O)C1(C)O)C2=O (stereo not drawn)
Data returned: > 100 µM

Data request: // lookup TGI | system=HCT-15 colon | key= `C/C(CC(=O)Nc1ccc(Cl)c(Cl)c1)=N/NC(=O)C[N+](C)(C)C`
Data returned: > 100 µM

Data request: // lookup TGI | system=HCT-15 colon | key= `COc1ccc(/C=C2\COc3ccc(O)c(O)c3C2=O)cc1`
Data returned: 2.74 µM

Data request: // lookup TGI | system=HCT-15 colon | key= `CC1=C(C(=O)CC(=O)C(=O)Nc2ccc(Cl)cc2C)Sc2ccccc2N1`
Data returned: > 100 µM

Data request: // lookup TGI | system=HCT-15 colon | key= `C=CCc1cccc2cc(C(=O)NC3CCCCC3)c(=N)oc12`
Data returned: 34.9 µM

Data request: // lookup TGI | system=HCT-15 colon | key= Cc1ccc(C2CC(c3cccc([N+](=O)[O-])c3)=Nc3ccccc3S2)cc1 (stereo not drawn)
Data returned: > 100 µM

Data request: // lookup TGI | system=HCT-15 colon | key= CN1CCCC2[C@@H]3CCC4=C(O)C(=O)CC[C@]4(C)C3CC[C@@]21C (stereo partly drawn)
Data returned: > 100 µM

Data request: // lookup TGI | system=HCT-15 colon | key= NC(Cc1ccccc1)P(=O)(O)O (stereo not drawn)
Data returned: > 100 µM

Data request: // lookup TGI | system=HCT-15 colon | key= `COc1cc(C(=O)N(C)N(C)C)cc(OC)c1OC`
Data returned: > 10 µM

Data request: // lookup TGI | system=HCT-15 colon | key= `C[N+](C)(CCNc1ccc(NCC[N+](C)(C)Cc2ccc([N+](=O)[O-])cc2)c2c1C(=O)c1ccccc1C2=O)Cc1ccc([N+](=O)[O-])cc1`
Data returned: > 100 µM

Data request: // lookup TGI | system=HCT-15 colon | key= `O=C1C(C=NC(=S)c2ccccc2)=C(O)c2ccccc21`
Data returned: > 100 µM

Data request: // lookup TGI | system=HCT-15 colon | key= `CCCCC(=O)OC[n+]1ccc(-c2c(COC(=O)NC(C)C)c(COC(=O)NC(C)C)c3n2CCC3)cc1`
Data returned: > 100 µM

Data request: // lookup TGI | system=HCT-15 colon | key= CC1OC(Oc2c(-c3cc(O)c(O)c(O)c3)oc3cc(O)cc(O)c3c2=O)C(O)C(O)C1O (stereo not drawn)
Data returned: > 100 µM

Data request: // lookup TGI | system=HCT-15 colon | key= COc1cc([C@@H]2c3cc4c(cc3[C@@H](OC3OC5CO[C@@H](c6cccs6)OC5C(O)C3O)[C@H]3COC(=O)[C@H]23)OCO4)cc(OC)c1O (stereo partly drawn)
Data returned: 11.3 µM

Data request: // lookup TGI | system=HCT-15 colon | key= `c1ccc(-c2nnc(CCCCCCCCc3nnc(-c4ccccc4)o3)o2)cc1`
Data returned: > 100 µM

Data request: // lookup TGI | system=HCT-15 colon | key= CC/C=C/C(CC)C/C(C)=C\[C@]1(CC)C[C@H](CC)[C@H](CC(=O)O)OO1 (stereo partly drawn)
Data returned: 1.62 µM

Data request: // lookup TGI | system=HCT-15 colon | key= O=C(Nc1nnc(-c2ccc(Cl)cc2)o1)C(SC(=S)N1CCCCC1)c1ccccc1 (stereo not drawn)
Data returned: > 81.5 µM

Data request: // lookup TGI | system=HCT-15 colon | key= N#CC1CCCC2SC(F)(F)C(F)(F)C12 (stereo not drawn)
Data returned: > 100 µM

Data request: // lookup TGI | system=HCT-15 colon | key= `CSc1cc(-c2cc3ccccc3o2)oc(=O)c1C#N`
Data returned: > 100 µM

Data request: // lookup TGI | system=HCT-15 colon | key= `C=C(C)c1cc(C(C)(C)C)cc(C(=C)C)c1S(C)(=O)=O`
Data returned: > 100 µM

Data request: // lookup TGI | system=HCT-15 colon | key= `C/C(=C\COP(=O)(O)OP(=O)(O)O)CCCOCc1ccccc1`
Data returned: > 100 µM

Data request: // lookup TGI | system=HCT-15 colon | key= `c1ccc(CC(Cc2ccccc2)C2=NCCCN2)cc1`
Data returned: > 100 µM

Data request: // lookup TGI | system=HCT-15 colon | key= O=C(NC(Cc1ccc(I)cc1)C(=O)O)c1cccc(Br)c1 (stereo not drawn)
Data returned: > 100 µM

Data request: // lookup TGI | system=HCT-15 colon | key= `N#CC(C#N)=Cc1c[nH]c(=O)[nH]c1=O`
Data returned: > 100 µM

Data request: // lookup TGI | system=HCT-15 colon | key= `CCCCCCCCCCCCCCCCCCOP(=O)([O-])OCC[N+](C)(C)C`
Data returned: 3.24 µM

Data request: // lookup TGI | system=HCT-15 colon | key= COc1ccc(OC)c(C#N)c1C#N (tested in a mixture with another compound)
Data returned: > 100 µM

Data request: // lookup TGI | system=HCT-15 colon | key= `Cc1cccc2c(NCCCN(C)C)c3c([N+](=O)[O-])ccc(C)c3nc12`
Data returned: 0.592 µM

Data request: // lookup TGI | system=HCT-15 colon | key= `C=C=C(Sc1ccccc1)C(C)(C)O`
Data returned: > 100 µM

Data request: // lookup TGI | system=HCT-15 colon | key= `COc1cc2c(cc1OCCCN1CCN(C)CC1)N=C[C@@H]1CCCN1C2=O`
Data returned: 7.02 µM

Data request: // lookup TGI | system=HCT-15 colon | key= `CCCN1C/C(=C\c2ccc(O)c(OC)c2)C(=O)/C(=C/c2ccc(O)c(OC)c2)C1`
Data returned: > 100 µM

Data request: // lookup TGI | system=HCT-15 colon | key= `Cn1cc(-c2csc(-c3c[nH]c4ccccc34)n2)c2cnccc21`
Data returned: 3.6 µM

Data request: // lookup TGI | system=HCT-15 colon | key= `CCSc1n/c(=C\c2ccc(N(C)C)cc2)c2nnnn12`
Data returned: > 100 µM

Data request: // lookup TGI | system=HCT-15 colon | key= Cc1ccc(C2=Nc3c(N)nc(N)nc3NC(c3cccc(Nc4ccnc5cc(C(F)(F)F)ccc45)c3)C2)cc1 (stereo not drawn)
Data returned: 3.57 µM

Data request: // lookup TGI | system=HCT-15 colon | key= `Clc1c2ncccc2cc2n[nH]nc12`
Data returned: > 100 µM
